Catalogue of melting point values

compound="O=C(NC(Cc1ccc([N+](=O)[O-])cc1)C(=O)O)c1ccc2cc(OCc3ccccc3)ccc2c1 (centres unmarked)" result="227 to 228 °C"
compound="O=C(NC(Cc1cccs1)C(=O)O)c1ccc2cc(OCc3ccccc3)ccc2c1 (centres unmarked)" result="200 to 202 °C"
compound="O=C(NC(Cc1ccc(C(F)(F)F)cc1)C(=O)O)c1ccc2cc(OCc3ccccc3)ccc2c1 (centres unmarked)" result="212 to 214 °C (dec.)"

Prompt: For the compound shown here, O=C(NC(Cc1ccccc1)C(=O)O)c1ccc2cc(OCCOc3ccccc3)ccc2c1 (centres unmarked) , give the reported melting point.
Response: 225 to 227 °C

Prompt: For the compound shown here, O=C(NC(Cc1c[nH]c2ccc(O)cc12)C(=O)O)c1ccc2cc(OCc3ccccc3)ccc2c1 (centres unmarked) , give the reported melting point.
Response: 261 to 262 °C (dec.)

Prompt: For the compound shown here, O=C(NC(Cc1ccc(I)cc1)C(=O)O)c1ccc2cc(OCc3ccccc3)ccc2c1 (centres unmarked) , give the reported melting point.
Response: 219 to 221 °C

Prompt: For the compound shown here, Cc1cc(C)cc(COc2ccc3cc(C(=O)NC(Cc4ccccc4)C(=O)O)ccc3c2)c1 (centres unmarked) , give the reported melting point.
Response: 167 to 168 °C

Prompt: For the compound shown here, O=C(NC(Cc1ccncc1)C(=O)O)c1ccc2cc(OCc3ccccc3)ccc2c1 (centres unmarked) , give the reported melting point.
Response: 260 to 262 °C (dec.)

----------
measurement type: melting point

A selection of reference data follows.
compound="O=C(NC(Cc1ccccc1)C(=O)O)c1ccc2cc(OCc3ccccc3C(F)(F)F)ccc2c1 (stereo not drawn)" measurement_type="melting point" result="167 °C"
compound=O=C(N[C@@H](Cc1ccccc1)C(=O)O)c1ccc2cc(NCc3ccccc3)ccc2c1 measurement_type="melting point" result="172 °C"
compound="Cc1c(COc2ccc3cc(C(=O)NC(Cc4ccccc4)C(=O)O)ccc3c2)cccc1[N+](=O)[O-] (stereo not drawn)" measurement_type="melting point" result="202 °C"
compound="O=C(NC(Cc1ccccc1)C(=O)O)c1ccc2cc(OCc3ccccc3Br)ccc2c1 (stereo not drawn)" measurement_type="melting point" result="206 to 207 °C"
compound="COc1ccc(COc2ccc3cc(C(=O)NC(Cc4ccccc4)C(=O)O)ccc3c2)cc1 (stereo not drawn)" measurement_type="melting point" result="188 °C"
compound="O=C(NC(Cc1ccccc1)C(=O)O)c1ccc2cc(OCCN3CCCC3)ccc2c1 (stereo not drawn)" measurement_type="melting point" result="234 °C"
compound="CS(=O)(=O)Nc1ccc(CC(NC(=O)c2ccc3cc(OCc4ccccc4)ccc3c2)C(=O)O)cc1 (stereo not drawn)" measurement_type="melting point" result="236 to 237 °C"
compound="O=C(NC(Cc1ccccc1F)C(=O)O)c1ccc2cc(OCc3ccccc3)ccc2c1 (stereo not drawn)" measurement_type="melting point" result="211 to 213 °C"

Proceed to the following item.
Prompt: For the compound shown here, Cc1ccc(COc2ccc3cc(C(=O)NC(Cc4ccccc4)C(=O)O)ccc3c2)cc1C (stereo not drawn) , give the reported melting point.
Response: 189 °C

----------
Catalogue of melting point values

A selection of reference data follows.
compound="O=C(NC(Cc1ccccc1)C(=O)O)c1ccc2cc(OCc3ccncc3)ccc2c1 (centres unmarked)" result="220 to 221 °C"
compound="Nc1ccc(CC(NC(=O)c2ccc3cc(OCc4ccccc4)ccc3c2)C(=O)O)cc1 (centres unmarked)" result="238 to 240 °C"
compound="O=C(NC(Cc1ccccc1)C(=O)O)c1ccc2cc(OCc3cccc([N+](=O)[O-])c3)ccc2c1 (centres unmarked)" result="193 to 194 °C"

Prompt: For the compound shown here, O=C(NC(Cc1ccccc1)C(=O)O)c1ccc2cc(OCCn3cccc3)ccc2c1 (centres unmarked) , give the reported melting point.
Response: 168 to 169 °C

Prompt: For the compound shown here, O=C(NC(Cc1ccccn1)C(=O)O)c1ccc2cc(OCc3ccccc3)ccc2c1 (centres unmarked) , give the reported melting point.
Response: 172 to 173 °C (dec.)

Prompt: For the compound shown here, O=C(NC(Cc1ccccc1)C(=O)O)c1ccc2cc(OCCn3ccnc3)ccc2c1 (centres unmarked) , give the reported melting point.
Response: 172 °C (dec.)

Prompt: For the compound shown here, Cc1ccccc1COc1ccc2cc(C(=O)NC(Cc3ccccc3)C(=O)O)ccc2c1 (centres unmarked) , give the reported melting point.
Response: 204 °C

Prompt: For the compound shown here, O=C(NC(Cc1ccccc1)C(=O)O)c1ccc2cc(OCCCn3cccc3)ccc2c1 (centres unmarked) , give the reported melting point.
Response: 195 °C

----------
measurement type: melting point

A selection of reference data follows.
compound="CC(Oc1ccc2cc(C(=O)NC(Cc3ccccc3)C(=O)O)ccc2c1)c1ccccc1 (stereo not drawn)" measurement_type="melting point" result="170 to 172 °C"
compound="O=C(NC(CCc1ccccc1)C(=O)O)c1ccc2cc(OCc3ccccc3)ccc2c1 (stereo not drawn)" measurement_type="melting point" result="223 to 225 °C"
compound="O=C(NC(Cc1ccc(Cl)cc1)C(=O)O)c1ccc2cc(OCc3ccccc3)ccc2c1 (stereo not drawn)" measurement_type="melting point" result="202 to 204 °C"
compound=O=C(N[C@@H](Cc1ccccc1)C(=O)O)c1ccc2cc(Oc3ccccc3)ccc2c1 measurement_type="melting point" result="179 to 180 °C"
compound="O=C(NC(Cc1ccc(N2CCOCC2)cc1)C(=O)O)c1ccc2cc(OCc3ccccc3)ccc2c1 (stereo not drawn)" measurement_type="melting point" result="216 to 218 °C (dec.)"
compound="O=C(NC(Cc1c[nH]c2ccc(F)cc12)C(=O)O)c1ccc2cc(OCc3ccccc3)ccc2c1 (stereo not drawn)" measurement_type="melting point" result="236 to 238 °C (dec.)"

Prompt: For the compound shown here, O=C(NC(CO)C(=O)O)c1ccc2cc(OCc3ccccc3)ccc2c1 (stereo not drawn) , give the reported melting point.
Response: 196 to 198 °C

Prompt: For the compound shown here, O=C(NC(Cc1ccc(-c2ccccc2)cc1)C(=O)O)c1ccc2cc(OCc3ccccc3)ccc2c1 (stereo not drawn) , give the reported melting point.
Response: 250 to 252 °C

Prompt: For the compound shown here, O=C(NC(Cc1cccc(F)c1)C(=O)O)c1ccc2cc(OCc3ccccc3)ccc2c1 (stereo not drawn) , give the reported melting point.
Response: 188 to 191 °C

----------
experimental system: IP receptor (Homo sapiens)
Construct: HEL cells were collected with centrifugation and washed with cAMP assay buffer
Sequence (P43119 whole entry): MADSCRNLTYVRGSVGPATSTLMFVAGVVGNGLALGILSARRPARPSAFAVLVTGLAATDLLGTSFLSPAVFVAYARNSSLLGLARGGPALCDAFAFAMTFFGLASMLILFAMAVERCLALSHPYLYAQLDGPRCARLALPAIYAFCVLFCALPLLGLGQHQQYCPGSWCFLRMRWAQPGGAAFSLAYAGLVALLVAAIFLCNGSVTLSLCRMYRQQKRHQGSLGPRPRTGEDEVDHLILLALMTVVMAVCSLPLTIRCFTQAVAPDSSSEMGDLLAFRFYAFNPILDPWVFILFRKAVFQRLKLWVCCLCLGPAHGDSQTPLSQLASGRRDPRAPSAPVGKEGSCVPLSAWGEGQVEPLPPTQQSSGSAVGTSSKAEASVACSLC
test description: Iloprost-induced cAMP production assay in HEL cells (Assay 2)
applied conditions: read-out: Activity grade assay 2
pIC50: −log10 of the molar value.
measurement type: pIC50

Prompt: For the compound shown here, O=C(NC(Cc1ccc(-c2ccncc2)cc1)C(=O)O)c1ccc2cc(OCc3ccccc3)ccc2c1 (centres unmarked) [Example 1-75] , give the reported pIC50.
Response: 6.00 to 7.00

Prompt: For the compound shown here, O=C(NC(Cc1ccccc1)C(=O)O)c1ccc2cc(OCCN3CCCC3)ccc2c1 (centres unmarked) [Example 1-81] , give the reported pIC50.
Response: < 6.00

Prompt: For the compound shown here, O=C(NC(Cc1ccccc1)C(=O)O)c1ccc2cc(OCCc3cccnc3)ccc2c1 (centres unmarked) [Example 1-77] , give the reported pIC50.
Response: 6.00 to 7.00

Prompt: For the compound shown here, O=C(NC(C(=O)O)C(O)c1ccccc1)c1ccc2cc(OCc3ccccc3)ccc2c1 (centres unmarked) [Example 1-18] , give the reported pIC50.
Response: > 7.00

Prompt: For the compound shown here, O=C(NC(Cc1c[nH]c2ccc(F)cc12)C(=O)O)c1ccc2cc(OCc3ccccc3)ccc2c1 (centres unmarked) [Example 1-79] , give the reported pIC50.
Response: > 7.00

Prompt: For the compound shown here, O=C(NC(Cc1ccccc1)C(=O)O)c1ccc2cc(OCc3cccc(OCC4CC4)c3)ccc2c1 (centres unmarked) [Example 1-89] , give the reported pIC50.
Response: 6.00 to 7.00

Prompt: For the compound shown here, O=C(NC(Cc1ccccc1)C(=O)O)c1ccc2cc(OCc3cccc([N+](=O)[O-])c3)ccc2c1 (centres unmarked) [Example 1-61] , give the reported pIC50.
Response: > 7.00

Prompt: For the compound shown here, CC(COc1ccc2cc(C(=O)NC(Cc3ccccc3)C(=O)O)ccc2c1)c1ccccc1 (centres unmarked) [Example 1-94] , give the reported pIC50.
Response: > 7.00
